The measurements presented in this section are drawn from patent US12129246B1.

tested on: monkey NPR1 (Macaca fascicularis)
Sequence (A0A7N9DBT9 entry or part of it): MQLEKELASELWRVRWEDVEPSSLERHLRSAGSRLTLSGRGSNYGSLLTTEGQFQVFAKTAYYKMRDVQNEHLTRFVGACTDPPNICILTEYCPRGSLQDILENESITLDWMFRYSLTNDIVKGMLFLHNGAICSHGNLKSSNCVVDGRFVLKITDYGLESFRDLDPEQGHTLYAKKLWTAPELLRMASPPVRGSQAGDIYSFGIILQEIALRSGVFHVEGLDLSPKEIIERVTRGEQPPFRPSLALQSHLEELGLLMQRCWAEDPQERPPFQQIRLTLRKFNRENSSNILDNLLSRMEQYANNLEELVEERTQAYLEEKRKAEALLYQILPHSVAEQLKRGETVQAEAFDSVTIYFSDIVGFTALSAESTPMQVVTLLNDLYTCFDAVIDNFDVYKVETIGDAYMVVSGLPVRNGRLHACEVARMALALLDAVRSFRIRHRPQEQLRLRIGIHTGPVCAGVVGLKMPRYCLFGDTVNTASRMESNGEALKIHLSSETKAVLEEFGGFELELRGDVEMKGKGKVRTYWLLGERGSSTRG
assay name: Cellular cGMP production assay, monkey NPR1 expressing CHO-K1 cells (CisBio HTRF)
Format: cell-based
Please go through the items and note down their AC50.
Give bare numbers, in nM.

Worked set:
INSERT INTO measurements (compound, tested_on, quantitative_readout) VALUES
  ('CC[C@H]([C@H]1CC[C@H](C(=O)O)CC1)N(C)c1nc2c(c(N[C@@H](CN3C4CCC3CC4)c3cnn(C)c3)n1)C[C@H](c1cccc(F)c1)CC2 [Compound 57]', 'monkey NPR1 (Macaca fascicularis)', 82),
  ('CC[C@H]([C@H]1CC[C@H](C(=O)O)CC1)N(C)c1nc2c(c(N[C@@H](CN3C4CCCC3CC(O)C4)c3cnn(CC)c3)n1)C[C@H](c1cccc(F)c1)CC2 (some centres unmarked) [Compound 79]', 'monkey NPR1 (Macaca fascicularis)', 327);

Record AC50 per entry; entries follow.
1. CC[C@@H](Nc1nc2c(c(N[C@@H](CN3C4CCCC3CCC4)c3ccccc3)n1)C[C@H](c1ccccc1)CC2)[C@H]1CC[C@H](C(=O)O)CC1 [Compound 108]
2. CC[C@H]([C@H]1CC[C@H](C(=O)O)CC1)N(C)c1nc2c(c(N[C@@H](CN3C4CCCC3CC4)c3cnn(C)c3)n1)CN(c1ccc(F)cc1)CC2 [Compound 80]
3. CC[C@@H](N(C)c1nc2c(c(N[C@@H](CN3C4CCCC3CC4)c3cnn(C)c3)n1)C[C@](C)(c1ccccc1)CC2)C12CC(C(=O)O)(C1)C2 [Compound 28]
4. CC[C@@H](N(C)c1nc2c(c(N[C@@H](CN3C4CCCC3CC4)c3cnc(C)s3)n1)C[C@H](c1cccc(F)c1)CC2)C12CC(C(=O)O)(C1)C2 [Compound 77]

Return:
[248, 137, 134, 134]

Record AC50 per entry; entries follow.
1. CC[C@H]([C@H]1CC[C@H](C(=O)O)CC1)N(C)c1nc2c(c(N[C@@H](CN3C4CCCC3CC4)c3cc(C)n(C)n3)n1)C[C@H](c1cccc(F)c1)CC2 [Compound 88]
2. CC[C@H]([C@H]1CC[C@H](C(=O)O)CC1)N(C)c1nc2c(c(N[C@@H](CN3C4CCC3CC4)c3cnn(C)c3)n1)C[C@](C)(c1ccccc1)CC2 [Compound 70]
3. CC[C@H]([C@H]1CC[C@H](C(=O)O)CC1)N(C)c1nc2c(c(N[C@@H](CN3C4CCCC3CC4)c3cnn(C)c3C)n1)C[C@H](c1cccc(F)c1)CC2 [Compound 16]
4. CC[C@@H](Nc1nc2c(c(N[C@@H](CN3C4CCCC3CCC4)c3cnn(C)c3)n1)C[C@H](c1ccccc1)CC2)[C@H]1CC[C@H](C(=O)O)CC1 [Compound 59]
5. CC[C@H]([C@H]1CC[C@H](C(=O)O)CC1)N(C)c1nc2c(c(N[C@@H](CN3CCC[C@H](C)C3)c3cnn(C)c3)n1)C[C@H](c1cccc(F)c1)CC2 [Compound 23]

Return:
255
230
47
153
72
